Entry source: paper PMC6600871

Test: Caco-2 permeability assay
Format: in vitro ADME
Conditions: human, Caco-2, pH 7.2
measured_parameter: efflux ratio

given_smiles: Cc1ncsc1-c1ccc(CNC(=O)[C@@H]2C[C@@H](O)CN2C(=O)[C@@H](NC(=O)C2(F)CC2)C(C)(C)C)c(OCCOc2ccc(CN3CCN(c4cc(-c5ccccc5O)nnc4N)CC3)cc2)c1
result: 1.7

----------
Biological target: SMARCA2^BD (Homo sapiens)
pIC50: −log10 of the molar value.
measured_parameter: pIC50

given_smiles: Cc1ncsc1-c1ccc(CNC(=O)[C@@H]2C[C@@H](O)CN2C(=O)[C@@H](NC(=O)C2(F)CC2)C(C)(C)C)c(OCCOc2ccc(CN3CCN(c4cc(-c5ccccc5O)nnc4N)CC3)cc2)c1
measured_parameter: pIC50
numeric_value: 6.11

----------
Assay: Caco-2 permeability assay
Assay type: in vitro ADME
Conditions: human, Caco-2, pH 7.2

given_smiles: Cc1ncsc1-c1ccc(CNC(=O)[C@@H]2C[C@@H](O)CN2C(=O)[C@@H](NC(=O)C2(F)CC2)C(C)(C)C)c(OCCOCCOCCN2CCN(c3cc(-c4ccccc4O)nnc3N)CC2)c1
Papp B→A at 2 h: 20.7 ×10⁻⁶ cm/s
